In this section we review reported koff values for a set of binders.
# TESTED SYSTEM: chicken IgY (chicken)
# ASSAY PROTOCOL: BLI; Octet, SAX (streptavidin) biosensors; recombinant Fabs against IgY; KD from a kinetic 1:1 model, global fit over multiple concentrations (partial fits averaged for 3 low-affinity Fabs)
Answer with a number only, understood to be in s⁻¹.

See these solved cases before continuing.
BINDER	koff (s⁻¹)
clone 2.1 Fab TA_25 (Fab, V domains shown) VH: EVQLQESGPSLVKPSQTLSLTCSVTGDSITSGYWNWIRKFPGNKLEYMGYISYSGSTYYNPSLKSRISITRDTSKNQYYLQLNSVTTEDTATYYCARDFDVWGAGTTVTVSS VL: DIVMTQSQKFMSTSVGDRVSVTCKASQNVGTNVAWYQQKPGQSPKALIYSASYRYSGVPDRFTGSGSGTDFTLTISNVQSEDLAEYFCHQYYSYPLTFGSGTKLEIK	0.000412
clone 2.1 Fab TA_12 (Fab, V domains shown) VH: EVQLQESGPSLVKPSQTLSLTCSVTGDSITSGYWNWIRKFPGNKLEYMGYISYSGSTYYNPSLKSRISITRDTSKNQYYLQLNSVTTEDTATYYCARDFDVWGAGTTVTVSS VL: DIVMTQSQKFMSTSVGDRVSVTCKASQNVGTNVAWFQQKPGQSPKALIYSASYRYSGVPDRFTGSGSGTDFTLTISNVQSEDLAEYFCQQYNSYPLTFGSGTKLEIK	0.00408

Shift focus to the following entry.
Report koff for clone 2.1 Fab TA_19 (Fab, V domains shown) VH: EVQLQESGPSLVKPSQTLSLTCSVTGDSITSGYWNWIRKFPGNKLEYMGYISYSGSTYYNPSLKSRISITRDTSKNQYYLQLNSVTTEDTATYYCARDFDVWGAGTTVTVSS VL: DIVMTQSQKFMSTSVGDRVSVTCKASQNVGTNVGWFQQKPGQSPKSLIYSASYRYSGVPDRFTGSGSGTDFTLTISNVQSEDLAEYFCHQYYSYPLTFGSGTKLEIK please.
8.66e-05

Cited source: paper PMC13360575
